Molecular target: T1, Recombinant MBP-mutCALR Type 1 fusion protein (human)
T1 construct: custom made at Cepter; also called recombinant mutCALR protein
Experiment: SPR, IgG captured, 1:1 fit, Exp. 1
Provide the reported koff of each item.
Numbers only; they are read as s⁻¹.

**Q:** Given the entry anti-mutCALR antibody clone 4 (antibody, human IgG1, lambda, V domains shown, human IgG1) VH: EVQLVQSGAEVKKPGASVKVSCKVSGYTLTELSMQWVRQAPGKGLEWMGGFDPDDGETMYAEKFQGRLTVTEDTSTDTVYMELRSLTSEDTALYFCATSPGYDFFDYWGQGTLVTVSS VL: SYVLTQPPSVSVAPGQTARITCGGNNIGSKSVHWYQQKPGQAPVLVVYDDSDRPSGIPERFSGSNSGNTATLTINRVEAGDEADYYCQVWDSSNDLLIFGGGTKLTVLG , report its measured koff.
**A:** 0.00704

**Q:** Would you mind doing anti-mutCALR antibody clone 18 (antibody, human IgG1, lambda, V domains shown, human IgG1) VH: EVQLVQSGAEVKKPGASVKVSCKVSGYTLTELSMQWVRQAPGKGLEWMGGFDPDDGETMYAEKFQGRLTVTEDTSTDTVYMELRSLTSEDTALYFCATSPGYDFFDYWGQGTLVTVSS VL: SYVLTQPPSVSVAPGKTARITCGGNNIGSKSVHWYQQKPGQAPVLVVYDDSDRPLGIPERFSGSNSGNTATLTINRVEAGDEADYYCQVWDSSNDLLIFGGGTKLTVLG as well?
**A:** 0.00628

**Q:** Would you mind doing anti-mutCALR antibody clone 36 (antibody, human IgG1, lambda, V domains shown, human IgG1) VH: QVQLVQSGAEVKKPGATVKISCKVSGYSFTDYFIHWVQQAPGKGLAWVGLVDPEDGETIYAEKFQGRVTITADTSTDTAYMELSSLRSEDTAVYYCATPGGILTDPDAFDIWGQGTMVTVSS VL: QSALTQPRSVSGSPGQSVTISCAGTGSDVGGYNYVSWYQHHPGKAPKLMIYDVNKRPSGVPDRFSGSKSGNTASLTISGLQAEDEADYYCSSYTSSSTFYVFGTGTKVTVLG as well?
**A:** 0.00205

**Q:** Would you mind doing anti-mutCALR antibody clone 25 (antibody, human IgG1, lambda, V domains shown, human IgG1) VH: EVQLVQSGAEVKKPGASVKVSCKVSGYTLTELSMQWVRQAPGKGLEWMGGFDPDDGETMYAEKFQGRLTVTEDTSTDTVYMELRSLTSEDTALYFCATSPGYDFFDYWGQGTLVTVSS VL: SYELTQPPSVAVAPGQTARITCGGNNIGRKAVHWYQQKPGQAPVLVVYDDSDRPSGIPERFSGSNSGNTATLTINRVEAGDEADYYCQVWDSSNDLLIFGGGTKLTVLG as well?
**A:** 0.00389

**Q:** Would you mind doing anti-mutCALR antibody clone 48 (antibody, human IgG1, lambda, V domains shown, human IgG1) VH: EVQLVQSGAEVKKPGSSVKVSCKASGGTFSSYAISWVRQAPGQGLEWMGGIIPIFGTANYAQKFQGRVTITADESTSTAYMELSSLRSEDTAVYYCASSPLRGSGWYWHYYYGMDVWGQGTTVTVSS VL: SYVLTQPPSVSVAPGKTARITCGGNNIGSKSVHWYQQKPGQAPVLVIYQDRKRPSGIPERFSGSNSGNTATLTISGTQAMDEADYYCQAWDSSTAVFGGGTKLTVLG as well?
**A:** 0.000297

The measurements presented in this section are drawn from patent US20230272055A1.
